Assay: Single ascending dose study in healthy subjects, pharmacokinetics of compound of Formula I
Format: in vivo, human
Conditions: human, plasma, mean, single oral dose 0.15 mg, 1 h
Experimental: A Phase 1, single-center, subject- and investigator-blind, single-ascending dose, placebo-controlled, crossover, randomized study is performed to evaluate safety, tolerability, and pharmacokinetics (PK) of the compound of Formula I in healthy subjects. The study is conducted in 2 alternating cohorts (cohorts 1 and 2) in up to 3 study periods across 6 dose levels. […]
Recorded metric: concentration at 1 h (ng/mL)
Give the value, in units of ng/mL, as a plain number.

-- ask Fill in: concentration at 1 h of CC(=O)Nc1nc(F)c(CN2CC[C@H](OCc3noc(C)n3)C[C@@H]2C)s1 is ___
-- reply 0.278

----------
Assay: Single ascending dose study in healthy subjects, pharmacokinetics of compound of Formula I
Assay type: in vivo, human
Conditions: human, plasma, mean, single oral dose 16 mg, 5 h
Recorded metric: concentration at 5 h (ng/mL)
Give the value, in units of ng/mL, as a plain number.

-- ask Fill in: concentration at 5 h of CC(=O)Nc1nc(F)c(CN2CC[C@H](OCc3noc(C)n3)C[C@@H]2C)s1 is ___
-- reply 100

----------
Experiment: Single ascending dose study in healthy subjects, pharmacokinetics of compound of Formula I
Format: in vivo, human
Settings: human, plasma, single oral dose 10 mg, geometric mean (% CV), read-out: Vz/F (apparent volume of distribution after oral administration)
Recorded metric: Vd/F (L)
Give the value, in units of L, as a plain number.

-- ask Fill in: Vd/F of CC(=O)Nc1nc(F)c(CN2CC[C@H](OCc3noc(C)n3)C[C@@H]2C)s1 [compound of Formula I] is ___
-- reply 104

----------
Test: Single ascending dose study in healthy subjects, pharmacokinetics of compound of Formula I
Format: in vivo, human
Details: human, plasma, single oral dose 0.15 mg, geometric mean (% CV)
Recorded metric: Cmax (ng/mL)
Give the value, in units of ng/mL, as a plain number.

-- ask Fill in: Cmax of CC(=O)Nc1nc(F)c(CN2CC[C@H](OCc3noc(C)n3)C[C@@H]2C)s1 is ___
-- reply 0.318

----------
Experiment: Plasma concentration of compound of Formula I in the PET occupancy study
Type: in vivo
Settings: human, single oral dose 5 mg, approx. 3 h, healthy subjects
Text: Healthy subjects are assigned to 1 of 4 cohorts with 4 subjects in each cohort completing the study. All subjects undergo one baseline PET scan and two post-dose PET scans. […] Arterial blood samples are collected from all subjects during each PET scan to measure radioactivity to provide input for the PET tracer kinetic analysis. […]
Recorded metric: concentration at 3 h (ng/mL)
Give the value, in units of ng/mL, as a plain number.

-- ask Fill in: concentration at 3 h of CC(=O)Nc1nc(F)c(CN2CC[C@H](OCc3noc(C)n3)C[C@@H]2C)s1 is ___
-- reply 31.9

----------
Test: Single ascending dose study in healthy subjects, pharmacokinetics of compound of Formula I
Assay type: in vivo, human
Conditions: human, plasma, mean, single oral dose 10 mg, 4 h
Recorded metric: concentration at 4 h (ng/mL)
Give the value, in units of ng/mL, as a plain number.

-- ask Fill in: concentration at 4 h of CC(=O)Nc1nc(F)c(CN2CC[C@H](OCc3noc(C)n3)C[C@@H]2C)s1 is ___
-- reply 100
